This collection of values is drawn from the supplement of paper PMC8612539.

- System: Mannheimia haemolytica
- procedure_details: minimum inhibitory concentration (MIC)
- test_parameters: isolate (source animal id): 259
Some compounds, each annotated with its measured minimum inhibitory concentration.
The answer is to be given in µg/mL; state only the numeric part.

Task: Consider the compound shown here: CN(C)[C@@H]1C(O)=C(C(N)=O)C(=O)[C@@]2(O)C(O)=C3C(=O)c4c(O)cccc4[C@@](C)(O)[C@H]3C[C@@H]12 [Tetracycline] What is its recorded minimum inhibitory concentration?
Result: 8

Task: CC1(C)S[C@@H]2[C@H](NC(=O)[C@H](N)c3ccccc3)C(=O)N2[C@H]1C(=O)O [Ampicillin] , same question.
Result: 16

---

- Tested on: Pasteurella multocida
- procedure_details: minimum inhibitory concentration (MIC)
- test_parameters: isolate (source animal id): 170
Some molecules, each annotated with its measured minimum inhibitory concentration.

Completed entries (count: 2):
molecule: CNC(C)C1CCC(N)C(OC2C(N)CC(N)C(OC3OCC(C)(O)C(NC)C3O)C2O)O1 (stereo not drawn) [Gentamicin]
minimum inhibitory concentration: 4 µg/mL
--
molecule: CCCNC[C@]1(O)[C@H](C)O[C@@H](O[C@H]2[C@H](C)[C@@H](O[C@@H]3O[C@H](C)C[C@H](N(C)C)[C@H]3O)[C@](C)(O)C[C@@H](C)CN[C@H](C)[C@@H](O)[C@](C)(O)[C@@H](CC)OC(=O)[C@@H]2C)C[C@@]1(C)OC [Tulathromycin]
minimum inhibitory concentration: ≤ 8 µg/mL

Task: Consider the molecule shown here: CCC[C@@H]1C[C@@H](C(=O)N[C@@H]([C@H]2O[C@H](SC)[C@H](O)[C@@H](O)[C@H]2O)[C@H](C)Cl)N(C)C1 [Clindamycin] What is its recorded minimum inhibitory concentration?
Result: > 16 µg/mL

---

- Tested on: Histophilus somni
- procedure_details: minimum inhibitory concentration (MIC)
- test_parameters: isolate (source animal id): 141
Some compounds, each annotated with its measured minimum inhibitory concentration.

Completed entries (count: 5):
molecular_string: CN(C)[C@@H]1C(O)=C(C(N)=O)C(=O)[C@@]2(O)C(O)=C3C(=O)c4c(O)cccc4[C@@](C)(O)[C@H]3C[C@@H]12
tested_on: Histophilus somni
minimum inhibitory concentration: ≤ 0.5 µg/mL

molecular_string: CCN1CCN(c2cc3c(cc2F)c(=O)c(C(=O)O)cn3C2CC2)CC1
tested_on: Histophilus somni
minimum inhibitory concentration: ≤ 0.12 µg/mL

molecular_string: CC1(C)S[C@@H]2[C@H](NC(=O)[C@H](N)c3ccccc3)C(=O)N2[C@H]1C(=O)O
tested_on: Histophilus somni
minimum inhibitory concentration: ≤ 0.25 µg/mL

molecular_string: CC[C@H]1OC(=O)C[C@@H](O)[C@H](C)[C@@H](O[C@@H]2O[C@H](C)[C@@H](O)[C@H](N(C)C)[C@H]2O)[C@@H](CCN2CCCCC2)C[C@@H](C)C(=O)/C=C/C(C)=C/[C@@H]1CN1CCCCC1
tested_on: Histophilus somni
minimum inhibitory concentration: 2 µg/mL

molecular_string: CO/N=C(\C(=O)N[C@@H]1C(=O)N2C(C(=O)O)=C(CSC(=O)c3ccco3)CS[C@H]12)c1csc(N)n1
tested_on: Histophilus somni
minimum inhibitory concentration: ≤ 0.25 µg/mL

As a next step, examine the compound that follows.
Task: Consider the compound shown here: COc1cc(NS(=O)(=O)c2ccc(N)cc2)nc(OC)n1 What is its recorded minimum inhibitory concentration?
Result: ≤ 256 µg/mL

---

- Test system: Enterococcus spp.
- procedure_details: minimum inhibitory concentration (MIC)
- test_parameters: isolate (source animal id): 296
test_readout: minimum inhibitory concentration

compound: CN(C)[C@@H]1C(O)=C(C(N)=O)C(=O)[C@@]2(O)C(O)=C3C(=O)c4c(O)cccc4[C@@](C)(O)[C@H]3C[C@@H]12
obs_value: ≤ 0.5 µg/mL
--
compound: CNC(C)C1CCC(N)C(OC2C(N)CC(N)C(OC3OCC(C)(O)C(NC)C3O)C2O)O1 (stereo not drawn)
obs_value: 8 µg/mL

As a next step, examine the compound that follows.
Task: Consider the compound shown here: NC[C@@H]1O[C@H](O[C@H]2[C@@H](O)[C@H](O[C@@H]3[C@@H](O)[C@H](N)C[C@H](N)[C@H]3O[C@H]3O[C@H](CN)[C@@H](O)[C@H](O)[C@H]3N)O[C@@H]2CO)[C@H](N)[C@@H](O)[C@@H]1O What is its recorded minimum inhibitory concentration?
Result: 32 µg/mL

---

- Tested on: Histophilus somni
- procedure_details: minimum inhibitory concentration (MIC)
- test_parameters: isolate (source animal id): 267
test_readout: minimum inhibitory concentration

Completed entries (count: 4):
molecular_string: CCCN1C[C@H](C)[C@@H](O)[C@](C)(O)[C@@H](CC)OC(=O)[C@H](C)[C@@H](O[C@H]2C[C@@](C)(OC)[C@@H](O)[C@H](C)O2)[C@H](C)[C@@H](O[C@@H]2O[C@H](C)C[C@H](N(C)C)[C@H]2O)[C@](C)(O)C[C@H]1C
tested_on: Histophilus somni
minimum inhibitory concentration: ≤ 1 µg/mL
//
molecular_string: CCN1CCN(c2cc3c(cc2F)c(=O)c(C(=O)O)cn3C2CC2)CC1
tested_on: Histophilus somni
minimum inhibitory concentration: ≤ 0.12 µg/mL
//
molecular_string: CN[C@@H]1[C@H](O)[C@H](NC)[C@H]2O[C@@]3(O)C(=O)C[C@@H](C)O[C@H]3O[C@@H]2[C@H]1O
tested_on: Histophilus somni
minimum inhibitory concentration: > 64 µg/mL
//
molecular_string: CS(=O)(=O)c1ccc([C@@H](O)[C@@H](CF)NC(=O)C(Cl)Cl)cc1
tested_on: Histophilus somni
minimum inhibitory concentration: ≤ 0.25 µg/mL

As a next step, examine the compound that follows.
Task: Consider the compound shown here: COc1cc(NS(=O)(=O)c2ccc(N)cc2)nc(OC)n1 What is its recorded minimum inhibitory concentration?
Result: > 256 µg/mL

---

- Tested on: Pasteurella multocida
- procedure_details: minimum inhibitory concentration (MIC)
- test_parameters: isolate (source animal id): 172
test_readout: minimum inhibitory concentration (µg/mL)
The answer is to be given in µg/mL; state only the numeric part.

molecule: CC[C@H]1OC(=O)C[C@@H](O)[C@H](C)[C@@H](O[C@@H]2O[C@H](C)[C@@H](O)[C@H](N(C)C)[C@H]2O)[C@@H](CCN2C[C@H](C)C[C@H](C)C2)C[C@@H](C)C(=O)/C=C/C(C)=C/[C@@H]1CO[C@@H]1O[C@H](C)[C@@H](O)[C@@H](OC)[C@H]1OC [Tilmicosin]
minimum inhibitory concentration (µg/mL): 8

Task: Consider the molecule shown here: C=C[C@]1(C)C[C@@H](OC(=O)CSCCN(CC)CC)[C@]2(C)[C@H](C)CC[C@]3(CCC(=O)[C@H]32)[C@@H](C)[C@@H]1O [Tiamulin] What is its recorded minimum inhibitory concentration?
Result: 32

---

- Tested on: Enterococcus spp.
- procedure_details: minimum inhibitory concentration (MIC)
- test_parameters: isolate (source animal id): 195
test_readout: minimum inhibitory concentration (µg/mL)
The answer is to be given in µg/mL; state only the numeric part.

compound: CC1(C)S[C@@H]2[C@H](NC(=O)[C@H](N)c3ccccc3)C(=O)N2[C@H]1C(=O)O [Ampicillin]
minimum inhibitory concentration (µg/mL): 1

Task: Consider the compound shown here: CNC(C)C1CCC(N)C(OC2C(N)CC(N)C(OC3OCC(C)(O)C(NC)C3O)C2O)O1 (stereo not given) [Gentamicin] What is its recorded minimum inhibitory concentration?
Result: 8

Task: CC[C@H]1OC(=O)C[C@@H](O)[C@H](C)[C@@H](O[C@@H]2O[C@H](C)[C@@H](O)[C@H](N(C)C)[C@H]2O)[C@@H](CCN2CCCCC2)C[C@@H](C)C(=O)/C=C/C(C)=C/[C@@H]1CN1CCCCC1 [Tildipirosin] , same question.
Result: 16

Task: C=C[C@]1(C)C[C@@H](OC(=O)CSCCN(CC)CC)[C@]2(C)[C@H](C)CC[C@]3(CCC(=O)[C@H]32)[C@@H](C)[C@@H]1O [Tiamulin] , same question.
Result: 1

---

- Test system: Escherichia coli
- procedure_details: minimum inhibitory concentration (MIC)
- test_parameters: isolate (source animal id): 184
Some compounds, each annotated with its measured minimum inhibitory concentration.

compound: CN1C[C@@H]2C[C@H]1CN2c1cc2c(cc1F)c(=O)c(C(=O)O)cn2C1CC1 [Danofloxacin]
minimum inhibitory concentration: ≤ 0.12 mg/L

compound: CC[C@H]1OC(=O)C[C@@H](O)[C@H](C)[C@@H](O[C@@H]2O[C@H](C)[C@@H](O)[C@H](N(C)C)[C@H]2O)[C@@H](CCN2C[C@H](C)C[C@H](C)C2)C[C@@H](C)C(=O)/C=C/C(C)=C/[C@@H]1CO[C@@H]1O[C@H](C)[C@@H](O)[C@@H](OC)[C@H]1OC [Tilmicosin]
minimum inhibitory concentration: > 16 mg/L

compound: CC1(C)S[C@@H]2[C@H](NC(=O)Cc3ccccc3)C(=O)N2[C@H]1C(=O)O [Penicillin]
minimum inhibitory concentration: > 8 mg/L

compound: CCC[C@@H]1C[C@@H](C(=O)N[C@@H]([C@H]2O[C@H](SC)[C@H](O)[C@@H](O)[C@H]2O)[C@H](C)Cl)N(C)C1 [Clindamycin]
minimum inhibitory concentration: > 16 mg/L

compound: CCN1CCN(c2cc3c(cc2F)c(=O)c(C(=O)O)cn3C2CC2)CC1 [Enrofloxacin]
minimum inhibitory concentration: ≤ 0.12 mg/L

Task: Consider the compound shown here: CC[C@H]1OC(=O)C[C@@H](O)[C@H](C)[C@@H](O[C@@H]2O[C@H](C)[C@@H](O)[C@H](N(C)C)[C@H]2O)[C@@H](CCN2CCCCC2)C[C@@H](C)C(=O)/C=C/C(C)=C/[C@@H]1CN1CCCCC1 [Tildipirosin] What is its recorded minimum inhibitory concentration?
Result: 8 mg/L
